System: murine peritoneal macrophages RAW 264.7
Assay: Cytotoxicity assay on RAW 264.7 (LDH release)
Assay type: cell-based
Details: 25 µg/mL, RAW 264.7
criterion met if LDH % Release is below 30%. criterion not met if not; exact matches included in criterion not met.

COMPOUND: O=C(NCCc1ccccc1)c1c(O)cccc1O [Rip-E, 2,6-Dihydroxy-N-phenethylbenzamide]
SYSTEM UNDER TEST: murine peritoneal macrophages RAW 264.7
CATEGORY LABEL: criterion not met
//
COMPOUND: COc1ccc(CCNC(=O)c2c(O)cccc2O)cc1OC [Rip-F]
SYSTEM UNDER TEST: murine peritoneal macrophages RAW 264.7
CATEGORY LABEL: criterion not met
//
COMPOUND: COc1ccc(CCNC(=O)c2ccccc2O)cc1OC [Rip-D]
SYSTEM UNDER TEST: murine peritoneal macrophages RAW 264.7
CATEGORY LABEL: criterion not met
//
COMPOUND: O=C(NCCc1ccccc1)c1ccccc1O [Rip-C, 2-Hydroxy-N-phenethylbenzamide]
SYSTEM UNDER TEST: murine peritoneal macrophages RAW 264.7
CATEGORY LABEL: criterion not met
//
COMPOUND: COc1ccc(CCNC(=O)c2ccccc2)cc1OC [Rip-B]
SYSTEM UNDER TEST: murine peritoneal macrophages RAW 264.7
CATEGORY LABEL: criterion met
//
COMPOUND: O=C(NCCc1ccccc1)c1ccccc1 [Rip-A, N-Phenethylbenzamide]
SYSTEM UNDER TEST: murine peritoneal macrophages RAW 264.7
CATEGORY LABEL: criterion met

---

Here, each record is paired with measured IC50 data.
Test system: HEP-2 (laryngeal carcinoma)
Assay: Cytotoxicity against tumor cell lines (MTT)
Type: cell-based
Details: Homo sapiens, 72 h, 95% confidence interval in brackets, read-out: IC50 values and confidence intervals, HEP-2
MEASURED ATTRIBUTE: IC50

COMPOUND: COc1ccc(CCNC(=O)c2ccccc2)cc1OC
MEASURED ATTRIBUTE: IC50
RESULT: > 25 µg/mL

COMPOUND: COc1ccc(CCNC(=O)c2c(O)cccc2O)cc1OC
MEASURED ATTRIBUTE: IC50
RESULT: 7.8 µg/mL

COMPOUND: COc1ccc(CCNC(=O)c2ccccc2O)cc1OC
MEASURED ATTRIBUTE: IC50
RESULT: 7.3 µg/mL

COMPOUND: O=C(NCCc1ccccc1)c1ccccc1O [Rip-C, 2-Hydroxy-N-phenethylbenzamide]
MEASURED ATTRIBUTE: IC50
RESULT: 7.3 µg/mL

COMPOUND: O=C(NCCc1ccccc1)c1ccccc1 [Rip-A, N-Phenethylbenzamide]
MEASURED ATTRIBUTE: IC50
RESULT: > 25 µg/mL

---

Experiment: Hydroxyl radical scavenging activity (2-deoxyribose degradation, Fenton reaction)
Details: 5 μg/mL
Marks after values point to notes of the source that are not given here.
Here, each record is paired with measured 2-Deoxyribose degradation (%) data.

MOLECULE: COc1ccc(CCNC(=O)c2ccccc2O)cc1OC [Rip-D]
2-Deoxyribose degradation (%): 67.9 ± 1.74 ^a %

MOLECULE: O=C(NCCc1ccccc1)c1c(O)cccc1O [Rip-E, 2,6-Dihydroxy-N-phenethylbenzamide]
2-Deoxyribose degradation (%): 62.2 ± 2.14 ^a %

MOLECULE: O=C(NCCc1ccccc1)c1ccccc1O [Rip-C, 2-Hydroxy-N-phenethylbenzamide]
2-Deoxyribose degradation (%): 80.9 ± 1.29 ^a %

MOLECULE: COc1ccc(CCNC(=O)c2ccccc2)cc1OC [Rip-B]
2-Deoxyribose degradation (%): 79.8 ± 1.34 ^a %

MOLECULE: O=C(NCCc1ccccc1)c1ccccc1 [Rip-A, N-Phenethylbenzamide]
2-Deoxyribose degradation (%): 76.9 ± 1.10 ^a %

MOLECULE: COc1ccc(CCNC(=O)c2c(O)cccc2O)cc1OC [Rip-F]
2-Deoxyribose degradation (%): 61.5 ± 0.98 ^a %

---

Assay: Hydroxyl radical scavenging activity (2-deoxyribose degradation, Fenton reaction)
Settings: hydroxyl radical content
Procedure: For the in vitro antioxidant tests the samples were emulsified in 0.05% Tween 80 dissolved in saline 0.9% (used as the vehicle) and tested at concentrations of 1, 5, 10, 25 and 100 µg/mL. […] The formation of OH radicals from Fenton reagents was quantified using the condensation product of the 2-deoxyribose oxidative degradation product, malonaldehyde, with 2-thiobarbituric acid (TBA). […]

COMPOUND: COc1ccc(CCNC(=O)c2ccccc2)cc1OC
IC50 OH radical / µg/mL: 1.639

COMPOUND: O=C(NCCc1ccccc1)c1ccccc1O [Rip-C, 2-Hydroxy-N-phenethylbenzamide]
IC50 OH radical / µg/mL: 0.9516

COMPOUND: COc1ccc(CCNC(=O)c2ccccc2O)cc1OC
IC50 OH radical / µg/mL: 1.358

COMPOUND: O=C(NCCc1ccccc1)c1c(O)cccc1O [Rip-E, 2,6-Dihydroxy-N-phenethylbenzamide]
IC50 OH radical / µg/mL: 1.054

COMPOUND: O=C(NCCc1ccccc1)c1ccccc1 [Rip-A, N-Phenethylbenzamide]
IC50 OH radical / µg/mL: 1.501

COMPOUND: COc1ccc(CCNC(=O)c2c(O)cccc2O)cc1OC
IC50 OH radical / µg/mL: 1.016

---

Assay: Hydroxyl radical scavenging activity (2-deoxyribose degradation, Fenton reaction)
Details: 1 μg/mL
Marks after values point to notes of the source that are not given here.
MEASURED ATTRIBUTE: 2-Deoxyribose degradation (%)

COMPOUND: COc1ccc(CCNC(=O)c2ccccc2)cc1OC
RESULT: 98.4 ± 0.39 ^a %
//
COMPOUND: O=C(NCCc1ccccc1)c1ccccc1 [Rip-A, N-Phenethylbenzamide]
RESULT: 97.1 ± 0.78 ^a %
//
COMPOUND: O=C(NCCc1ccccc1)c1ccccc1O [Rip-C, 2-Hydroxy-N-phenethylbenzamide]
RESULT: 95.5 ± 1.30 ^a %
//
COMPOUND: COc1ccc(CCNC(=O)c2ccccc2O)cc1OC
RESULT: 93.5 ± 1.17 ^a %
//
COMPOUND: COc1ccc(CCNC(=O)c2c(O)cccc2O)cc1OC
RESULT: 83.3 ± 2.13 ^a %
//
COMPOUND: O=C(NCCc1ccccc1)c1c(O)cccc1O [Rip-E, 2,6-Dihydroxy-N-phenethylbenzamide]
RESULT: 79.9 ± 0.64 ^a %

---

Here, each record is paired with measured TBARS levels (% AAPH) data.
Experiment: Antioxidant potential against the formation of TBARS (AAPH-induced lipid peroxidation of egg yolk homogenate)
Settings: 5 μg/mL
Marks after values point to notes of the source that are not given here.
MEASURED ATTRIBUTE: TBARS levels (% AAPH)

COMPOUND: COc1ccc(CCNC(=O)c2ccccc2O)cc1OC
RESULT: 39.4 ± 0.71 ^a %
--
COMPOUND: COc1ccc(CCNC(=O)c2c(O)cccc2O)cc1OC
RESULT: 35.9 ± 0.41 ^a %
--
COMPOUND: O=C(NCCc1ccccc1)c1ccccc1O [Rip-C, 2-Hydroxy-N-phenethylbenzamide]
RESULT: 38.8 ± 1.07 ^a %
--
COMPOUND: COc1ccc(CCNC(=O)c2ccccc2)cc1OC
RESULT: 40.4 ± 0.85 ^a %
--
COMPOUND: O=C(NCCc1ccccc1)c1ccccc1 [Rip-A, N-Phenethylbenzamide]
RESULT: 38.1 ± 0.49 ^a %
--
COMPOUND: O=C(NCCc1ccccc1)c1c(O)cccc1O [Rip-E, 2,6-Dihydroxy-N-phenethylbenzamide]
RESULT: 38.6 ± 0.63 ^a %

---

Experiment: Scavenging activity of nitric oxide (nitrite production induced by SNP, Griess reaction)
Settings: 10 μg/mL
Marks after values point to notes of the source that are not given here.
Here, each record is paired with measured Nitrite Production (% induced by SNP) data.

COMPOUND: O=C(NCCc1ccccc1)c1ccccc1 [Rip-A, N-Phenethylbenzamide]
Nitrite Production (% induced by SNP): 29.2 ± 2.05 ^a %

COMPOUND: O=C(NCCc1ccccc1)c1ccccc1O [Rip-C, 2-Hydroxy-N-phenethylbenzamide]
Nitrite Production (% induced by SNP): 22.9 ± 1.31 ^a %

COMPOUND: COc1ccc(CCNC(=O)c2ccccc2)cc1OC
Nitrite Production (% induced by SNP): 29.1 ± 2.00 ^a %

COMPOUND: COc1ccc(CCNC(=O)c2c(O)cccc2O)cc1OC
Nitrite Production (% induced by SNP): 21.5 ± 0.98 ^a %

COMPOUND: COc1ccc(CCNC(=O)c2ccccc2O)cc1OC
Nitrite Production (% induced by SNP): 28.9 ± 1.74 ^a %

COMPOUND: O=C(NCCc1ccccc1)c1c(O)cccc1O [Rip-E, 2,6-Dihydroxy-N-phenethylbenzamide]
Nitrite Production (% induced by SNP): 25.1 ± 1.37 ^a %

---

Here, each record is paired with measured 2-Deoxyribose degradation (%) data.
Test: Hydroxyl radical scavenging activity (2-deoxyribose degradation, Fenton reaction)
Settings: 10 μg/mL
Marks after values point to notes of the source that are not given here.

COMPOUND: O=C(NCCc1ccccc1)c1c(O)cccc1O [Rip-E, 2,6-Dihydroxy-N-phenethylbenzamide]
2-Deoxyribose degradation (%): 53.4 ± 1.79 ^a %

COMPOUND: COc1ccc(CCNC(=O)c2ccccc2)cc1OC
2-Deoxyribose degradation (%): 58.5 ± 0.85 ^a %

COMPOUND: O=C(NCCc1ccccc1)c1ccccc1 [Rip-A, N-Phenethylbenzamide]
2-Deoxyribose degradation (%): 54.5 ± 0.85 ^a %

COMPOUND: COc1ccc(CCNC(=O)c2ccccc2O)cc1OC
2-Deoxyribose degradation (%): 56.9 ± 0.82 ^a %

COMPOUND: O=C(NCCc1ccccc1)c1ccccc1O [Rip-C, 2-Hydroxy-N-phenethylbenzamide]
2-Deoxyribose degradation (%): 58.7 ± 1.37 ^a %

COMPOUND: COc1ccc(CCNC(=O)c2c(O)cccc2O)cc1OC
2-Deoxyribose degradation (%): 57.6 ± 1.47 ^a %
